Tested Target: T1, human PILRB, ectopically expressed on 293 cells (human, UniProt Q9UKJ0 20-227)
T1 construct: also called hB
T1 sequence (Q9UKJ0 20-227): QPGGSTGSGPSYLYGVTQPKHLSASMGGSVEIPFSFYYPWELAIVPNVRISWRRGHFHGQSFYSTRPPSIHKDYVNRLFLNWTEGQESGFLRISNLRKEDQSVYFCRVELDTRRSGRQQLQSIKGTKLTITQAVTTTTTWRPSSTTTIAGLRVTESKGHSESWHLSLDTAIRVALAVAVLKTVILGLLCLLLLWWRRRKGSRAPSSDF
Procedure Details: flow cytometry, 293 cells expressing target
Metric: EC50 (µg/mL)
Give just the numeric value; µg/mL need not be written.

Worked set:
[
  {
    "Binder": "D8 (antibody, V domains shown, second hybridoma campaign; same VH/VL as D6) VH: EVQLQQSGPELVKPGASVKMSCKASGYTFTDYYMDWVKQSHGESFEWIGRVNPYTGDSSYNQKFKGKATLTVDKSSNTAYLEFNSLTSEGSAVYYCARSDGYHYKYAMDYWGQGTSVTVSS VL: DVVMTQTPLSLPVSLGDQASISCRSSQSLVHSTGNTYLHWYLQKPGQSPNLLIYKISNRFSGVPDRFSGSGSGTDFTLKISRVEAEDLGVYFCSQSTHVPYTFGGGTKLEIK",
    "Endpoint Unit": "µg/mL",
    "EC50": 0.35
  },
  {
    "Binder": "E3 (antibody, V domains shown, second hybridoma campaign) VH: QAYLQQSGAELVRSGASVKMSCKASGNTFTYYNLHWIRQTPGQGLEWIGYIFPGNGDAYYNQNFKGKATLTADTSSSTAYMQISSLTFEDSAVYFCARSPHYYGSGFDYWGQGTPLTVSS VL: DIQMTQSSSYLSVSLGGGVTITCKASDHINNWLAWYQQKPGNAPRLLISGATSLETGVPSRFSGSGSGKDYTLSITSLQTEDVATYYCQQYWSTPWTFGGGTKLEIK",
    "Endpoint Unit": "µg/mL",
    "EC50": 0.78
  }
]

Would you mind telling me what EC50 value was observed for A15 (antibody, V domains shown, phage campaign) VH: QVQLVQSGAEVKKPGASVKVSCKASGGTFSNYGLTWVRQAPGQGLEWMGWINLNSGGTYYAQKFQGRVTMTRDTSTSTVYMELSSLRSEDTAVYYCARDRYSSGWYEGDAFDIWGQGTMVTVSS VL: DIQMTQSPSSLSASVGDRVTITCRASQGISNWLAWYQQKPGKAPKLLIYAASSLQSGVPSRFSGSGSGTDFTLTISSLQPEDFATYYCQQSYSTPWTFGPGTKVDIK ?
10.5
